Give chromatographic logP for every item shown.
Assay: logP by HPLC (EEC Directive 79/831 Annex V. A8, gradient method, acetonitrile/0.1% aqueous phosphoric acid)
Type: physicochemical
One number for each entry.

Some molecules with known chromatographic logP results, for comparison:
CON=C(C1=NOCCN1)c1ccccc1Oc1ncnc(Sc2ccc(Cl)cc2)c1F [Example 50]	3.57
CON=C(C1=NOCCN1)c1ccccc1Oc1ncnc(Oc2ccccc2OC)c1F [Example 14]	2.7
CON=C(C1=NOCCN1)c1ccccc1Oc1ncnc(Oc2ccc(OC(F)(F)F)cc2Cl)c1F [Example 27]	3.86
CCOCc1ccccc1Oc1ncnc(Oc2ccccc2C(=NOC)C2=NOCCN2)c1F [Example 62]	3.04
CON=C(C1=NOCCN1)c1ccccc1Oc1ncnc(Oc2cccc(Cl)c2Cl)c1F [Example 1]	3.45
CON=C(C1=NOCCN1)c1ccccc1Oc1ncnc(Oc2cccc3c2OC(C)(C)C3)c1F [Example 31]	3.3
CON=C(C1=NOCCN1)c1ccccc1Oc1ncnc(Oc2ccccc2C(C)C)c1F [Example 13]	3.59

Below: the item to evaluate.
Asked: What chromatographic logP value was documented for this molecule, CON=C(C1=NOCCN1)c1ccccc1Oc1ncnc(Oc2ccc(Cl)cn2)c1F [Example 41] ?
Given back: 2.65
